Tested on: SK-MEL-28
protocol.description: NCI tumour cell line growth inhibition, 48 h
Active and inactive are the calls of the source. Cut-off read from the data, not from the text of the source: active = GI50 up to about 1.1 µM and inactive = higher.
measurement.kind: GI50

> print(dat)
                                   compound               result
1  Cc1ccc(S(=O)(=O)ON2C(=O)c3cccc4cc([N+](=O)[O-])cc(c34)C2=O)cc1  > 100 µM (inactive)
2  NS(=O)(=O)c1nnc(NS(=O)(=O)c2ccc(Cl)cc2)s1  > 100 µM (inactive)
3  CCCCCCCCCCC(O)[C@H]1CCC(C2CC[C@H]([C@H](O)CCCCCCCCCCC(O)CC3=CC(C)OC3=O)O2)O1 (stereo not given in full)   2.05 µM (inactive)
4  C/C(=N\NC(=S)Nc1ccc(Cl)cc1)c1nc2cccnc2[nH]1   1.51 µM (inactive)
5             CNc1ccc(-c2nc3cc(C)ccc3o2)cc1  > 100 µM (inactive)

Ref: ChEMBL document CHEMBL1201862
